# system: T1, Pin3, Q06449
# T1 sequence (Q06449 53-122, looked up): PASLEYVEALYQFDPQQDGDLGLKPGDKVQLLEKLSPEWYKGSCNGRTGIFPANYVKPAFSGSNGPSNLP
# assay.remarks: SPOT array
# details: median of control spots 2171
outcome.measure: SPOT intensity
A bare number is all that is needed in reply.

Answered cases to consult:
{"binder": "TKRKRPARLIFYDSK", "SPOT intensity": 0}
{"binder": "KKEKKPPKIPKKVYT", "SPOT intensity": 1}
{"binder": "NIKVLLNPKLGKPVK", "SPOT intensity": 2}
{"binder": "TYNRTAFQIPGDQSI", "SPOT intensity": 45}
{"binder": "TTAPALPSLPPPPLL", "SPOT intensity": 0}
{"binder": "VPVAPPPPPASLGQS", "SPOT intensity": 0}
{"binder": "MKRSRPSRSIPYTTP", "SPOT intensity": 34}
{"binder": "YLTRPLPSTPNEDSR", "SPOT intensity": 0}
{"binder": "QQNRPLPQLPNRNNR", "SPOT intensity": 34}
{"binder": "NHSRSLFSLPGNQQS", "SPOT intensity": 16}

Lookup: Report measured SPOT intensity; entry is "ILARAILTIPRVLDK"
Found: 107

Lookup: Report measured SPOT intensity; entry is "FSRRQSMDIPSKNRN"
Found: 195

Lookup: Report measured SPOT intensity; entry is "FIRKRAPTPPAPSRS"
Found: 26

Lookup: Report measured SPOT intensity; entry is "ISNFVPPNLPMRRFK"
Found: 217

Lookup: Report measured SPOT intensity; entry is "RHLKLVPSTPMDIPW"
Found: 329
